The following compounds are listed with their measured MIC90 values.
System: Staphylococcus epidermidis
Assay: Antimicrobial activity against methicillin-susceptible Staphylococcus epidermidis clinical isolate after 18 to 22 hrs by broth microdilution method
Format: functional
Respond numerically; units are µg/mL and should not be typed.

Known MIC90 results, listed for orientation:
>>> reported_value("CCN1CCN(C(=O)N[C@@H](C(=O)N[C@@H]2C(=O)N3[C@@H]2SC(C)(C)[C@@H]3C(=O)O)c2ccccc2)C(=O)C1=O")
8
>>> reported_value("C[C@H]1COc2c(N3CCN(C)CC3)c(F)cc3c(=O)c(C(=O)O)cn1c23.C[C@H]1COc2c(N3CCN(C)CC3)c(F)cc3c(=O)c(C(=O)O)cn1c23.O")
0.25
>>> reported_value("CC(=O)NC[C@H]1CN(c2ccc(N3CCOCC3)c(F)c2)C(=O)O1")
2

# next compound below
Just so you know, measured MIC90 for CN[C@H](CC(C)C)C(=O)N[C@H]1C(=O)N[C@@H](CC(N)=O)C(=O)N[C@H]2C(=O)N[C@H]3C(=O)N[C@H](C(=O)N[C@H](C(=O)O)c4cc(O)cc(O)c4-c4cc3ccc4O)[C@H](O)c3ccc(c(Cl)c3)Oc3cc2cc(c3O[C@@H]2O[C@H](CO)[C@@H](O)[C@H](O)[C@H]2O[C@H]2C[C@](C)(N)[C@H](O)[C@H](C)O2)Oc2ccc(cc2Cl)[C@H]1O came out at 1

---

Tested on: Streptococcus pneumoniae
Assay: Antimicrobial activity against penicillin-susceptible Streptococcus pneumoniae clinical isolate after 18 to 22 hrs by broth microdilution method
Format: functional
Quick reference for MIC50 among some molecules
Respond with the bare value in µg/mL.

Illustrative cases are given below, each with its answer.
>>> reported_value("CN[C@H](CC(C)C)C(=O)N[C@H]1C(=O)N[C@@H](CC(N)=O)C(=O)N[C@H]2C(=O)N[C@H]3C(=O)N[C@H](C(=O)N[C@H](C(=O)O)c4cc(O)cc(O)c4-c4cc3ccc4O)[C@H](O)c3ccc(c(Cl)c3)Oc3cc2cc(c3O[C@@H]2O[C@H](CO)[C@@H](O)[C@H](O)[C@H]2O[C@H]2C[C@](C)(N)[C@H](O)[C@H](C)O2)Oc2ccc(cc2Cl)[C@H]1O [VANCOMYCIN]")
0.12
>>> reported_value("C[C@H]1COc2c(N3CCN(C)CC3)c(F)cc3c(=O)c(C(=O)O)cn1c23.C[C@H]1COc2c(N3CCN(C)CC3)c(F)cc3c(=O)c(C(=O)O)cn1c23.O [LEVOFLOXACIN]")
1

Query CC(=O)NC[C@H]1CN(c2ccc(N3CCOCC3)c(F)c2)C(=O)O1 [LINEZOLID] yields MIC50 of 0.5

MIC50 in this record for CCN1CCN(C(=O)N[C@@H](C(=O)N[C@@H]2C(=O)N3[C@@H]2SC(C)(C)[C@@H]3C(=O)O)c2ccccc2)C(=O)C1=O [PIPERACILLIN] : 0.015

---

Tested on: Haemophilus influenzae
Test: Antimicrobial activity against beta-lactamase-negative Haemophilus influenzae clinical isolate after 18 to 22 hrs by broth microdilution method
Assay type: functional
READOUT KIND: MIC50

>>> reported_value("CO/N=C(\\C(=O)N[C@@H]1C(=O)N2C(C(=O)O)=C(CSc3nc(=O)c(O)nn3C)CS[C@H]12)c1csc(N)n1")
"≤ 0.03 µg/mL"
>>> reported_value("CCN1CCN(C(=O)N[C@@H](C(=O)N[C@@H]2C(=O)N3[C@@H]2SC(C)(C)[C@@H]3C(=O)O)c2ccccc2)C(=O)C1=O")
"0.015 µg/mL"
>>> reported_value("C[C@H]1COc2c(N3CCN(C)CC3)c(F)cc3c(=O)c(C(=O)O)cn1c23.C[C@H]1COc2c(N3CCN(C)CC3)c(F)cc3c(=O)c(C(=O)O)cn1c23.O")
"≤ 0.015 µg/mL"

MIC50 reading for C[C@@H](O)[C@H]1C(=O)N2C(C(=O)O)=C(SCCNC=N)C[C@H]12 [IMIPENEM ANHYDROUS] : 0.05 µg/mL

---

System: Klebsiella pneumoniae
Experiment: Antimicrobial activity against AmpC- producing Klebsiella pneumoniae clinical isolate after 18 to 22 hrs by broth microdilution method
Format: functional
READOUT KIND: MIC90

>>> reported_value("C[C@H]1COc2c(N3CCN(C)CC3)c(F)cc3c(=O)c(C(=O)O)cn1c23.C[C@H]1COc2c(N3CCN(C)CC3)c(F)cc3c(=O)c(C(=O)O)cn1c23.O")
"> 16 µg/mL"

Measured MIC90 of CO/N=C(\C(=O)N[C@@H]1C(=O)N2C(C(=O)O)=C(CSc3nc(=O)c(O)nn3C)CS[C@H]12)c1csc(N)n1 : > 32 µg/mL

Reported MIC90 of CCN1CCN(C(=O)N[C@@H](C(=O)N[C@@H]2C(=O)N3[C@@H]2SC(C)(C)[C@@H]3C(=O)O)c2ccccc2)C(=O)C1=O : > 128 µg/mL

MIC90 recorded for this compound, C[C@@H](O)[C@H]1C(=O)N2C(C(=O)O)=C(SCCNC=N)C[C@H]12 [IMIPENEM ANHYDROUS] , is 16 µg/mL

---

Tested on: Streptococcus pyogenes
Assay: Antimicrobial activity against Streptococcus pyogenes clinical isolate after 18 to 22 hrs by broth microdilution method
Format: functional
READOUT KIND: MIC90 (µg/mL)
Report only the number, with the unit µg/mL understood.

// below: answered compounds
>>> reported_value("CCN1CCN(C(=O)N[C@@H](C(=O)N[C@@H]2C(=O)N3[C@@H]2SC(C)(C)[C@@H]3C(=O)O)c2ccccc2)C(=O)C1=O")
0.06
>>> reported_value("C[C@H]1COc2c(N3CCN(C)CC3)c(F)cc3c(=O)c(C(=O)O)cn1c23.C[C@H]1COc2c(N3CCN(C)CC3)c(F)cc3c(=O)c(C(=O)O)cn1c23.O")
0.5
>>> reported_value("CC(=O)NC[C@H]1CN(c2ccc(N3CCOCC3)c(F)c2)C(=O)O1")
1

Lab note: next compound to report on.
Reported MIC90 ( CN[C@H](CC(C)C)C(=O)N[C@H]1C(=O)N[C@@H](CC(N)=O)C(=O)N[C@H]2C(=O)N[C@H]3C(=O)N[C@H](C(=O)N[C@H](C(=O)O)c4cc(O)cc(O)c4-c4cc3ccc4O)[C@H](O)c3ccc(c(Cl)c3)Oc3cc2cc(c3O[C@@H]2O[C@H](CO)[C@@H](O)[C@H](O)[C@H]2O[C@H]2C[C@](C)(N)[C@H](O)[C@H](C)O2)Oc2ccc(cc2Cl)[C@H]1O ) = 0.25

---

Test system: Staphylococcus haemolyticus
Assay: Antimicrobial activity against Staphylococcus haemolyticus clinical isolate after 18 to 22 hrs by broth microdilution method
Format: functional
READOUT KIND: MIC90

Consider the following illustrative entries.
>>> reported_value("C[C@H]1COc2c(N3CCN(C)CC3)c(F)cc3c(=O)c(C(=O)O)cn1c23.C[C@H]1COc2c(N3CCN(C)CC3)c(F)cc3c(=O)c(C(=O)O)cn1c23.O")
"16 µg/mL"
>>> reported_value("CC(=O)NC[C@H]1CN(c2ccc(N3CCOCC3)c(F)c2)C(=O)O1")
"2 µg/mL"
>>> reported_value("CN[C@H](CC(C)C)C(=O)N[C@H]1C(=O)N[C@@H](CC(N)=O)C(=O)N[C@H]2C(=O)N[C@H]3C(=O)N[C@H](C(=O)N[C@H](C(=O)O)c4cc(O)cc(O)c4-c4cc3ccc4O)[C@H](O)c3ccc(c(Cl)c3)Oc3cc2cc(c3O[C@@H]2O[C@H](CO)[C@@H](O)[C@H](O)[C@H]2O[C@H]2C[C@](C)(N)[C@H](O)[C@H](C)O2)Oc2ccc(cc2Cl)[C@H]1O")
"1 µg/mL"

Below: the item to evaluate.
Item CCN1CCN(C(=O)N[C@@H](C(=O)N[C@@H]2C(=O)N3[C@@H]2SC(C)(C)[C@@H]3C(=O)O)c2ccccc2)C(=O)C1=O was tested on Staphylococcus haemolyticus; the reported MIC90 is > 128 µg/mL

---

Each entry below lists one item and its recorded MIC90 value.
Test system: Haemophilus influenzae
Test: Antimicrobial activity against beta-lactamase-producing Haemophilus influenzae clinical isolate after 18 to 22 hrs by broth microdilution method
Assay type: functional
Respond numerically; units are µg/mL and should not be typed.

>>> reported_value("C[C@@H](O)[C@H]1C(=O)N2C(C(=O)O)=C(SCCNC=N)C[C@H]12 [IMIPENEM ANHYDROUS]")
0.5

Measured MIC90 of CCN1CCN(C(=O)N[C@@H](C(=O)N[C@@H]2C(=O)N3[C@@H]2SC(C)(C)[C@@H]3C(=O)O)c2ccccc2)C(=O)C1=O [PIPERACILLIN] : 32

---

System: Morganella morganii
Assay: Antimicrobial activity against Morganella morganii clinical isolate after 18 to 22 hrs by broth microdilution method
Type: functional
READOUT KIND: MIC50 (µg/mL)
Please give a number only; it is taken to be in µg/mL.

Please review the entries below; each comes with its answer.
>>> reported_value("C[C@H]1COc2c(N3CCN(C)CC3)c(F)cc3c(=O)c(C(=O)O)cn1c23.C[C@H]1COc2c(N3CCN(C)CC3)c(F)cc3c(=O)c(C(=O)O)cn1c23.O")
0.03
>>> reported_value("CO/N=C(\\C(=O)N[C@@H]1C(=O)N2C(C(=O)O)=C(CSc3nc(=O)c(O)nn3C)CS[C@H]12)c1csc(N)n1")
0.06

get_value(item= CCN1CCN(C(=O)N[C@@H](C(=O)N[C@@H]2C(=O)N3[C@@H]2SC(C)(C)[C@@H]3C(=O)O)c2ccccc2)C(=O)C1=O , readout=MIC50) returns 8

// MIC50 lookup, compound = C[C@@H](O)[C@H]1C(=O)N2C(C(=O)O)=C(SCCNC=N)C[C@H]12 [IMIPENEM ANHYDROUS] , result: 4
